details: in water, 288.15 K
measurement.name: solubility (mole fraction)
Please reply with the value in numeric form only.

Prompt: # lookup: solubility (mole fraction) of COC(=O)Nc1nc2ccc(Sc3ccccc3)cc2[nH]1
Completion: 4.4e-06

###

details: in 1,4-dioxane, 303.15 K
measurement.name: solubility (mole fraction)
Please reply with the value in numeric form only.

Prompt: # lookup: solubility (mole fraction) of COC(=O)Nc1nc2ccc(Sc3ccccc3)cc2[nH]1
Completion: 0.00169

###

conditions: in acetone, 318.15 K
measurement.name: solubility (mole fraction)
Please reply with the value in numeric form only.

Prompt: # lookup: solubility (mole fraction) of COC(=O)Nc1nc2ccc(Sc3ccccc3)cc2[nH]1
Completion: 0.000308

Reference for the values: BigSolDB 2.1
